- assayed_system: PLK1 (Homo sapiens, UniProt P53350)
- Sequence (P53350 whole entry): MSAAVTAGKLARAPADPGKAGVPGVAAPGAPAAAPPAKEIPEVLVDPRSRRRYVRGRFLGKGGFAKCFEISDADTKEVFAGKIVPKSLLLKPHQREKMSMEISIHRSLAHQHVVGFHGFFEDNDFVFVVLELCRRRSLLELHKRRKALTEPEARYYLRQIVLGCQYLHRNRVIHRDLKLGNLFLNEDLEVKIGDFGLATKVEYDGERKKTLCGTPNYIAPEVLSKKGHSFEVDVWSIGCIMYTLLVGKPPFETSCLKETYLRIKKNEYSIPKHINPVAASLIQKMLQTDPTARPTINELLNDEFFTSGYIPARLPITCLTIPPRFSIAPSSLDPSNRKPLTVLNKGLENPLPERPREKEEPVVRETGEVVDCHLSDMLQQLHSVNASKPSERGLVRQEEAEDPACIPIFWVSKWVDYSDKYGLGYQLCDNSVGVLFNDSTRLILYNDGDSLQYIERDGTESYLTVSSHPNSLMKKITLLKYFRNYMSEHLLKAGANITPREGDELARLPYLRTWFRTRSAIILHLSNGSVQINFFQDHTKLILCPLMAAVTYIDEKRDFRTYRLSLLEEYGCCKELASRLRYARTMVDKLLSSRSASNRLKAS
pKi: −log10 of the molar value.
measured_parameter: pKi

[in] Indicate the recorded pKi value for this molecule: CC[C@@H]1c2c(C(=O)O)ncn2-c2cnc(Nc3ccc(C(=O)NC)cc3OC)nc2N1C1CCCC1 [Compound I-2]
[out] > 9.00

Every entry's value here was drawn from patent US8557818B2.
